Data credit: patent US20260217683A1

Answer each item with its documented inhibition at 100 µM.
assay-system: smooth muscle myosin S1 (Gallus gallus)
Construct: purchased Cytoskeleton #CS-MYS05
Sequence (P10587 84-789 limits assumed): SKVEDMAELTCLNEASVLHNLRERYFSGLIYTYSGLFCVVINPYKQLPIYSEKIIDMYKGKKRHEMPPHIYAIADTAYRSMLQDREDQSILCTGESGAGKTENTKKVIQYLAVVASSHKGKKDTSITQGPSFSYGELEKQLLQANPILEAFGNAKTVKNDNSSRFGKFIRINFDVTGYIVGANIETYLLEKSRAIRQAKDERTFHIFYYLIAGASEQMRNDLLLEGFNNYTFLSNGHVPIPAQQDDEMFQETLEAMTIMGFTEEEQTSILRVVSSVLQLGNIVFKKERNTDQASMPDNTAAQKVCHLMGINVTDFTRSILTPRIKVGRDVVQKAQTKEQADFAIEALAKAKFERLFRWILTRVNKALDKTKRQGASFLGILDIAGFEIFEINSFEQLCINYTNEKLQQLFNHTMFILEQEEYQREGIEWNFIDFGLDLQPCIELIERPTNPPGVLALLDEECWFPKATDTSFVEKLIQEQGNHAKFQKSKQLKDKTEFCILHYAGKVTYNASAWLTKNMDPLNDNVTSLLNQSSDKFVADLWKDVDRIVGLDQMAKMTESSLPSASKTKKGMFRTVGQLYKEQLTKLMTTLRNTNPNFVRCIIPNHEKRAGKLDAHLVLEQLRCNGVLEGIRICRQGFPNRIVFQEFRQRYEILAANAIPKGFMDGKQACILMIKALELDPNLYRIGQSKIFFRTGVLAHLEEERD
Sequence (P02607 whole entry partner): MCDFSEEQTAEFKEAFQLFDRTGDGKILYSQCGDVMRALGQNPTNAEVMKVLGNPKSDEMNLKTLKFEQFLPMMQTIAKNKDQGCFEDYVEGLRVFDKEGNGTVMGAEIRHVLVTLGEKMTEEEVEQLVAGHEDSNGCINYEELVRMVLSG
procedure-details: Inhibition of hydrolysis of ATP by smooth muscle myosin S1 fragments
Type: biochemical
experimental-parameters: 100 μM compound
The reply should read as a number followed by its unit.

Known results for compounds:
structure_as_smiles=O=c1ccc(-c2cnc(OCC(F)(F)F)nc2)nn1Cc1ccc2c(c1)C=CC2 assay_system="smooth muscle myosin S1 (Gallus gallus)" reported_property="inhibition at 100 µM" result=11%
structure_as_smiles=O=C1CCc2ccc(Cn3nc(-c4cnc(OCC5CC5)nc4)ccc3=O)cc21 assay_system="smooth muscle myosin S1 (Gallus gallus)" reported_property="inhibition at 100 µM" result=-2%
structure_as_smiles=O=c1ccc(-c2cnc(OCC(F)(F)F)nc2)nn1Cc1ccc2c(c1)CCC2 assay_system="smooth muscle myosin S1 (Gallus gallus)" reported_property="inhibition at 100 µM" result=3.3%
structure_as_smiles=Cn1cc(Oc2ncc(-c3ccc(=O)n(Cc4ccc5c(c4)CCC5)n3)cn2)cn1 assay_system="smooth muscle myosin S1 (Gallus gallus)" reported_property="inhibition at 100 µM" result=-2%
structure_as_smiles=O=c1ccc(-c2cnc(Oc3ccnc(C(F)(F)F)c3)nc2)nn1Cc1ccc2c(c1)CCC2 assay_system="smooth muscle myosin S1 (Gallus gallus)" reported_property="inhibition at 100 µM" result=8%
structure_as_smiles=O=c1ccc(-c2cnc(OC3CCOCC3)nc2)nn1Cc1ccc2c(c1)CC2 assay_system="smooth muscle myosin S1 (Gallus gallus)" reported_property="inhibition at 100 µM" result=-2%

Give inhibition at 100 µM for each of the items listed below.
1. O=c1cc2c(nn1Cc1ccc3c(c1)CC3)-c1cnc(Oc3cncc(F)c3)nc1CC2
2. O=C1CCc2ccc(Cn3nc(-c4cnc(OC5CC(F)(F)C5)nc4)ccc3=O)cc21

1: -9%; 2: 3%
